FYI, the data here is from patent US20030068675.

- Subject Of Test: T1, ZFP SBS#464 (synthetic)
- T1 chain: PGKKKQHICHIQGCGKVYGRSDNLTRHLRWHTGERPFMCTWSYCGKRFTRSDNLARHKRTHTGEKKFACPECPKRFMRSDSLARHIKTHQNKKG
- Assay Method Text: EMSA
- Condition Parameters: tags: MBP fusion
pKd: −log10 of the molar value.
Experimental Endpoint: pKd

>>> experimental_value("GTGGAGGAGA (dsDNA) DNA 1: GTGGAGGAGA DNA 2: TCTCCTCCAC")
9.40
